molecular target: CB1 (Homo sapiens (Human), UniProt P21554); assay: CB1 Binding Assay ([3H]CP 55940, cell membrane homogenates); conditions: CB1; test concentration 1.0E−05 (MD)
Sequence (P21554 whole entry): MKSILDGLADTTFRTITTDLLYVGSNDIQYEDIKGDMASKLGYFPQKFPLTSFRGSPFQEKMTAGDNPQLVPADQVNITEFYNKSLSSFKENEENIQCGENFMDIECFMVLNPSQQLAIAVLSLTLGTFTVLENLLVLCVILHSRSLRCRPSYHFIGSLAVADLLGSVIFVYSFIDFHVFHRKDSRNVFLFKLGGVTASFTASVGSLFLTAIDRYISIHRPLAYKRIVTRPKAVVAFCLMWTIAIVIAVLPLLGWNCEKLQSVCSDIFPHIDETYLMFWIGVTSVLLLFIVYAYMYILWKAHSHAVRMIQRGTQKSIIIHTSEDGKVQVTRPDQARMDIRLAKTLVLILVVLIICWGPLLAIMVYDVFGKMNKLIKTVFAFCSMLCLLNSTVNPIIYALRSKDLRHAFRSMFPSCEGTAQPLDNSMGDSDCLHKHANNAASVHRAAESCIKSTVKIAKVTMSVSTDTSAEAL
Response field label takes true (1) when % of Control Specific Binding Mean is strictly below 30% and false (0) in all other cases.

Answer whether the compound CC1(Cc2ccccc2)COc2cc(C(=O)N3CCCCC3)ccc21 (centres unmarked) has % of Control Specific Binding Mean strictly less than 30%
true (1)

Input CC1(Cc2ccccc2)COc2ccc(C(=O)Nc3ccccc3I)cc21 (centres unmarked) ; condition: % of Control Specific Binding Mean strictly below 30%. Does it hold?
false (0)

Below 30% on % of Control Specific Binding Mean? Entry CC1(Cc2ccccc2)COc2cc(C(=O)NC3CCCCC3)ccc21 (centres unmarked)
false (0)

Please check: % of Control Specific Binding Mean for CC1(Cc2ccccc2)COc2cc(C(=O)Nc3ccccc3I)ccc21 (centres unmarked) , strictly under 30% or not?
false (0)

Please check: % of Control Specific Binding Mean for CC1(Cc2ccccc2)COc2ccc(C(=O)NC3CCCCC3)cc21 (centres unmarked) , strictly under 30% or not?
false (0)
